target: 5-hydroxytryptamine receptor 2A (Homo sapiens)
Sequence (P28223 whole entry): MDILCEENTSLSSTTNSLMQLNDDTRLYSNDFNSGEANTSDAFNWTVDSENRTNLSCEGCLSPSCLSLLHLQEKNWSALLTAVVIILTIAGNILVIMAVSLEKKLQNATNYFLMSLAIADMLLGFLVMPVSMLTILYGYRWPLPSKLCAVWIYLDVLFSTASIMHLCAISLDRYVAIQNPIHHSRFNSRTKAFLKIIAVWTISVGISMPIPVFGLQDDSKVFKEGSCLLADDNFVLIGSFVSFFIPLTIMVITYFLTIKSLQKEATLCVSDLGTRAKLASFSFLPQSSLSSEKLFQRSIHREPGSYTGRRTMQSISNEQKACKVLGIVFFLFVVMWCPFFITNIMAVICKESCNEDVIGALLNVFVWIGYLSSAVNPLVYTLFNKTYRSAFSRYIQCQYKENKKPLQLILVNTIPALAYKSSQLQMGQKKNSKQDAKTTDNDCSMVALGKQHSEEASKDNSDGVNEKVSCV
Ki values for the compounds below.
outcome measure: Ki

>>> meas_value("Fc1ccc(OCCCN2CCN(c3ccc(Cl)cc3)CC2)cc1")
"60 nM"
>>> meas_value("Fc1ccc(OCCCN2CCN(c3ccccc3)CC2)cc1")
"57.6 nM"
>>> meas_value("c1ccc(OCCCN2CCN(c3ccccc3)CC2)cc1")
"46 nM"
>>> meas_value("Fc1ccc(SCCCN2CCC(c3ccc(Cl)cc3)CC2)cc1")
"112 nM"
>>> meas_value("Fc1ccc(CCCCN2CCN(c3ccc(Cl)cc3)CC2)cc1")
"81 nM"
>>> meas_value("[O-][S+](CCCN1CCC(c2ccc(Cl)cc2)CC1)c1ccc(F)cc1 (centres undefined)")
"222 nM"
>>> meas_value("Fc1ccc(OCCCN2CCN(c3ncccn3)CC2)cc1")
"23 nM"
>>> meas_value("Fc1ccc(SCCCN2CCN(c3ccc(C(F)(F)F)cc3)CC2)cc1")
"1130 nM"
>>> meas_value("Fc1ccc(SCCCN2CCN(c3ccc(Cl)cc3)CC2)cc1")
"53 nM"

====

target: Histamine H1 receptor (Homo sapiens, UniProt P35367)
Sequence (P35367 whole entry): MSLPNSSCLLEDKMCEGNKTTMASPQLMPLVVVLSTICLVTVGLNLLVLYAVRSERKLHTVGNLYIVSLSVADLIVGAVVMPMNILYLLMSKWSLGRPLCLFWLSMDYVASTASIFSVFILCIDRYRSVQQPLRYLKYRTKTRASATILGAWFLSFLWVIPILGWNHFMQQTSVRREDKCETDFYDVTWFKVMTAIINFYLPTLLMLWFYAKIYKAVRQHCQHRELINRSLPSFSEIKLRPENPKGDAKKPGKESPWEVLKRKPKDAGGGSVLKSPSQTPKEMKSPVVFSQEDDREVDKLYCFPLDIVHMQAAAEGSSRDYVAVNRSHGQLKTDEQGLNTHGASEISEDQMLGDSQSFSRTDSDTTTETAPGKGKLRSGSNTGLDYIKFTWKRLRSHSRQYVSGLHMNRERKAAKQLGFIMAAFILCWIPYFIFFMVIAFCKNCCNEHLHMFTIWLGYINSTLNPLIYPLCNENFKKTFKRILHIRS
Classify: YES when Ki is strictly less than 200 nM; NO when Ki is not.

>>> assigned_class("c1ccc(OCCCN2CCN(c3ccccc3)CC2)cc1")
"YES"
>>> assigned_class("Fc1ccc(CCCCN2CCN(c3ccccn3)CC2)cc1")
"YES"
>>> assigned_class("Fc1ccc(OCCCN2CCN(c3ccccn3)CC2)cc1")
"NO"
>>> assigned_class("Fc1ccc(SCCCN2CCN(c3ccccn3)CC2)cc1")
"NO"
>>> assigned_class("Fc1ccc(OCCCN2CCN(c3ccccc3)CC2)cc1")
"YES"

====

biological target: Alpha-2C adrenergic receptor (Homo sapiens)
Sequence (P18825 whole entry): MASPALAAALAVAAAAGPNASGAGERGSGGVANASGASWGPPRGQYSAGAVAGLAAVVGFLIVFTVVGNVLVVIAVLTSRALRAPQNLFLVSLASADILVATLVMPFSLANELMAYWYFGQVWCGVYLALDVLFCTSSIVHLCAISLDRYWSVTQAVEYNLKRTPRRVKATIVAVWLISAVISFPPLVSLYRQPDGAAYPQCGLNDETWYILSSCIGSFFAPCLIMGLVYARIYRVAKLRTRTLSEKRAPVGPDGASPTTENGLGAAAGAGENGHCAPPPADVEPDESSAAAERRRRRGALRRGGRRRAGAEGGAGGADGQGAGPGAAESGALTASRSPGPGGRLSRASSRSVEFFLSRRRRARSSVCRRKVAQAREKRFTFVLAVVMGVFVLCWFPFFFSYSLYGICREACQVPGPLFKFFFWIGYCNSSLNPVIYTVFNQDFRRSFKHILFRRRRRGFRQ
outcome measure: Ki (µM)

>>> meas_value("Fc1ccc(CCCCN2CCN(c3ccccn3)CC2)cc1")
0.308
>>> meas_value("O=C(CCCN1CCN(c2ncccn2)CC1)c1ccc(F)cc1")
0.08

====

Parameter Ki: see the listing below.
target: D(2) dopamine receptor (Homo sapiens); experiment: Displacement of [3H]N-methylspiperone from human dopamine D2 receptor by liquid scintillation counting
Sequence (P14416 whole entry): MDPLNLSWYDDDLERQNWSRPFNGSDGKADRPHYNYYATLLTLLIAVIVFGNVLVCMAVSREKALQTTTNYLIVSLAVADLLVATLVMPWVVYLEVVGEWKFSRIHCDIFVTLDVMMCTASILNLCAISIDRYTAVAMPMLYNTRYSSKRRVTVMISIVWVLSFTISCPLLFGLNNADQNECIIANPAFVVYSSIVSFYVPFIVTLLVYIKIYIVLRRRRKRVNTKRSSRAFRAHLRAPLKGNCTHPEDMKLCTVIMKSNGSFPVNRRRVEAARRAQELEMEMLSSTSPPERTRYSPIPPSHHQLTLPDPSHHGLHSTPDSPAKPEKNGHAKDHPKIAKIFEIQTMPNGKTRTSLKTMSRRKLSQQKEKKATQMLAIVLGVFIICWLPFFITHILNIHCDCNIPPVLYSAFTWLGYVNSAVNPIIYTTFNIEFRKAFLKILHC
outcome measure: Ki (nM)

>>> meas_value("Fc1ccc(SCCCN2CCN(c3ccc(Cl)cc3)CC2)cc1")
211
>>> meas_value("Fc1ccc(SCCCN2CCC(c3ccc(Cl)cc3)CC2)cc1")
185
>>> meas_value("Fc1ccc(OCCCN2CCN(c3ncccn3)CC2)cc1")
636
>>> meas_value("[O-][S+](CCCN1CCC(c2ccc(Cl)cc2)CC1)c1ccc(F)cc1 (configuration not stated)")
998
>>> meas_value("Fc1ccc(OCCCN2CCN(c3ccccc3)CC2)cc1")
37
>>> meas_value("Fc1ccc(SCCCN2CCN(c3ccc(C(F)(F)F)cc3)CC2)cc1")
4750
>>> meas_value("Fc1ccc(OCCCN2CCC(c3ccc(Cl)cc3)CC2)cc1")
41
>>> meas_value("Fc1ccc(OCCCN2CCN(c3ccc(Cl)cc3)CC2)cc1")
390
>>> meas_value("Fc1ccc(SCCCN2CCN(c3ncccn3)CC2)cc1")
424
>>> meas_value("Clc1ccc(N2CCN(CCCOc3ccccc3)CC2)cc1")
447
>>> meas_value("c1ccc(OCCCN2CCN(c3ccccc3)CC2)cc1")
119
>>> meas_value("OC1(c2ccc(Cl)cc2)CCN(CCCOc2ccc(F)cc2)CC1")
5.3
